// data source = paper PMC9482650

- Target Of Assay: MAGI2_6, Q86UL8
- Sequence (Q86UL8 1141-1229): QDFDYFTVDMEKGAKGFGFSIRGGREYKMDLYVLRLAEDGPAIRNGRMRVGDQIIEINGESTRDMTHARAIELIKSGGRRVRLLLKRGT
- Test Protocol: holdup assay
- Design: key: below the threshold = too weak to quantify, mostly under pKd 3.1 to 4
- Conditions: plain residues with an end cap or a label only (N-terminal biotin on a linker: ado-ado)
Reported Property: pKd

{"columns": ["Binder", "Reported Property", "Value Observed"],
 "data": [
  ["THREVKFTSL [CD46, P15529]", "pKd", 4.59],
  ["PGKKPEDSRV [SLCO2B1, O94956]", "pKd", "below the threshold"],
  ["QLGSPTADLA [SIPA1, Q96FS4]", "pKd", "below the threshold"],
  ["EKPIDSETKM [SLC1A3, P43003]", "pKd", "below the threshold"]
]}
